System name: LMP-1 TMD-5 (Epstein-Barr virus, UniProt P03230)
Sequence (P03230 140-160): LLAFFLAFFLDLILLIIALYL
Assay conditions: read-out: IC50 to disrupt TMD-5 oligomerization in whole cells; ToxR assay, dose-dependent titration
Reported endpoint: IC50
# output: number + unit

input: Report measured IC50 on LMP-1 TMD-5 (Epstein-Barr virus, UniProt P03230); entry: N=C(N)c1ccc(C=Cc2ccc(C(=N)N)cc2O)cc1.O=S(=O)(O)CCO.O=S(=O)(O)CCO
output: 90 µM
